Assay: Hyperbolic partial competitive inhibition of bovine pancreatic RNase A using 2',3'-cCMP as substrate assessed as inhibition constant by spectrophotometric analysis
Design: species or system Bos taurus
Readout Kind: Ki (nM)

Cc1cn([C@H]2C[C@H](OCc3cn(CC(=O)O)nn3)[C@@H](COCc3cn(CC(=O)O)nn3)O2)c(=O)n(Cc2cn(CC(=O)O)nn2)c1=O 2300

====

Test: Competitive inhibition of bovine pancreatic RNase A using 2',3'-cCMP as substrate assessed as inhibition constant by spectrophotometric analysis
Design: species or system Bos taurus
Readout Kind: Ki

O=C(O)Cn1cc(COC[C@H]2O[C@@H](n3ccc(=O)n(Cc4cn(CC(=O)O)nn4)c3=O)[C@H](O)[C@@H]2O)nn1 198 µM
O=C(O)Cn1cc(COC[C@H]2O[C@@H](n3ccc(=O)n(Cc4cn(CC(=O)O)nn4)c3=O)[C@H](OCc3cn(CC(=O)O)nn3)[C@@H]2OCc2cn(CC(=O)O)nn2)nn1 74.1 µM
Cc1cn([C@H]2C[C@H](OCc3cn(CC(=O)O)nn3)[C@@H](CO)O2)c(=O)n(Cc2cn(CC(=O)O)nn2)c1=O 352 µM
O=C(O)Cn1cc(Cn2c(=O)ccn([C@@H]3O[C@H](CO)[C@@H](O)[C@H]3O)c2=O)nn1 55.4 µM
